meta.source: ChEMBL document CHEMBL6121046

Assay: Oral bioavailability in C57BL/6 mouse allografted with mouse MC38 cells at 50 mg/kg
Assay type: ADME, organism-based
Conditions: in vivo
resultType: bioavailability

Q: Reported bioavailability, molecule "Cc1c(COc2cc(OCc3cccc(C#N)c3)c(CNC(C)(C)C(=O)O)cc2Cl)cccc1-c1ccccc1" : ____
Result: < 5%

---

Target: Histone deacetylase 1 (Homo sapiens)
Experiment: Inhibition of human recombinant HDAC1 pre-incubated with compounds for 10 mins measured followed by 60 mins of substrate addition
pIC50: −log10 of the molar value.
resultType: pIC50

• CCCNNC(=O)c1ccc(CNC(=O)c2cnc(-c3ccc4occc4c3)[nH]2)cc1 = 5.40
• CCCNNC(=O)c1ccc(CNC(=O)c2cnc(-c3ccc4c(c3)OCCO4)[nH]2)cc1 = 5.41
• CCCNNC(=O)c1ccc(CNC(=O)c2cnc(-c3ccccc3)[nH]2)cc1 = 5.69
• CCCNNC(=O)c1ccc(CNC(=O)c2cnc(-c3ccc(OC)cc3)[nH]2)cc1 = 5.63
• Nc1ccccc1NC(=O)c1ccc(CNC(=O)c2cnc(-c3cccc4ccccc34)[nH]2)cc1 = 5.61

P: Nc1ccccc1NC(=O)c1ccc(CNC(=O)c2cnc(-c3ccc4c(c3)OCCO4)[nH]2)cc1
Q: Nc1ccccc1NC(=O)c1ccc(CNC(=O)c2cnc(-c3ccccc3)[nH]2)cc1
Q: // max by pIC50 over [ P , Q ] Use the label to indicate which entry you chose.
Result: Q

---

Assay: Antiproliferative activity against […] cells measured after 48 hrs incubation by MTT assay relative to control
Type: functional, cell-based
Details: Mus musculus, Lung cancer cell line
resultType: pIC50
Please note pIC50 is a logarithmic value: minus log10 of concentration in mol/L. Answer with that number alone.

• CCCNNC(=O)c1ccc(CNC(=O)c2cnc(-c3ccc4occc4c3)[nH]2)cc1 = 5.99
• Nc1ccccc1NC(=O)c1ccc(CNC(=O)OCc2cccnc2)cc1 [ENTINOSTAT] = 5.54
• CCCNNC(=O)c1ccc(CNC(=O)c2ncc(CNc3ccccc3)s2)cc1 = 6.60
• CCCNNC(=O)c1ccc(CNC(=O)c2cnc(-c3ccc4ccccc4c3)[nH]2)cc1 = 5.86
• CCCNNC(=O)c1ccc(CNC(=O)c2cnc(-c3ccccc3)[nH]2)cc1 = 5.66

Shift focus to the following entry.
Q: Reported pIC50, compound "CCCNNC(=O)c1ccc(CNC(=O)c2cnc(-c3cccc4ccccc34)[nH]2)cc1" : ____
Result: 6.03

---

Target: Histone deacetylase 3 (Homo sapiens, UniProt O15379)
Sequence (O15379 whole entry): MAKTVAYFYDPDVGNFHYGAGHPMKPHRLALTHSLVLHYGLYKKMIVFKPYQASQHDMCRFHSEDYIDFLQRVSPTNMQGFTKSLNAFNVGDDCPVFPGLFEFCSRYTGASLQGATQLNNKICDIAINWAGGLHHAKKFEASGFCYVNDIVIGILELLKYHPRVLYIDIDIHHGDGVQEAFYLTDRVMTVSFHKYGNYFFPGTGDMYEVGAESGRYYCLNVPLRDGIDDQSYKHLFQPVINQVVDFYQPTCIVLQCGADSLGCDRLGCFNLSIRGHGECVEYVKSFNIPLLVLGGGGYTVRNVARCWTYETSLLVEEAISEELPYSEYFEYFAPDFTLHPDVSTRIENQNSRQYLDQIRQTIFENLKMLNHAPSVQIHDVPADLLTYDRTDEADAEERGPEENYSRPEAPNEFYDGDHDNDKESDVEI
Experiment: Inhibition of human recombinant HDAC3 pre-incubated with compounds for 10 mins measured followed by 60 mins of substrate addition
resultType: IC50 (nM)

* CCCNNC(=O)c1ccc(CNC(=O)c2cnc(-c3ccc(OC)cc3)[nH]2)cc1 | 88
* CCCNNC(=O)c1ccc(CNC(=O)c2cnc(-c3ccc4occc4c3)[nH]2)cc1 | 53
* Nc1ccccc1NC(=O)c1ccc(CNC(=O)c2cnc(-c3cccc4ccccc34)[nH]2)cc1 | 96
* COc1ccc(-c2ncc(C(=O)NCc3ccc(C(=O)Nc4ccccc4N)cc3)[nH]2)cc1 | 100
* Nc1ccccc1NC(=O)c1ccc(CNC(=O)c2cnc(-c3ccc4occc4c3)[nH]2)cc1 | 91

---

Target: UniProt:Q9UBN7
Sequence (Q9UBN7 whole entry): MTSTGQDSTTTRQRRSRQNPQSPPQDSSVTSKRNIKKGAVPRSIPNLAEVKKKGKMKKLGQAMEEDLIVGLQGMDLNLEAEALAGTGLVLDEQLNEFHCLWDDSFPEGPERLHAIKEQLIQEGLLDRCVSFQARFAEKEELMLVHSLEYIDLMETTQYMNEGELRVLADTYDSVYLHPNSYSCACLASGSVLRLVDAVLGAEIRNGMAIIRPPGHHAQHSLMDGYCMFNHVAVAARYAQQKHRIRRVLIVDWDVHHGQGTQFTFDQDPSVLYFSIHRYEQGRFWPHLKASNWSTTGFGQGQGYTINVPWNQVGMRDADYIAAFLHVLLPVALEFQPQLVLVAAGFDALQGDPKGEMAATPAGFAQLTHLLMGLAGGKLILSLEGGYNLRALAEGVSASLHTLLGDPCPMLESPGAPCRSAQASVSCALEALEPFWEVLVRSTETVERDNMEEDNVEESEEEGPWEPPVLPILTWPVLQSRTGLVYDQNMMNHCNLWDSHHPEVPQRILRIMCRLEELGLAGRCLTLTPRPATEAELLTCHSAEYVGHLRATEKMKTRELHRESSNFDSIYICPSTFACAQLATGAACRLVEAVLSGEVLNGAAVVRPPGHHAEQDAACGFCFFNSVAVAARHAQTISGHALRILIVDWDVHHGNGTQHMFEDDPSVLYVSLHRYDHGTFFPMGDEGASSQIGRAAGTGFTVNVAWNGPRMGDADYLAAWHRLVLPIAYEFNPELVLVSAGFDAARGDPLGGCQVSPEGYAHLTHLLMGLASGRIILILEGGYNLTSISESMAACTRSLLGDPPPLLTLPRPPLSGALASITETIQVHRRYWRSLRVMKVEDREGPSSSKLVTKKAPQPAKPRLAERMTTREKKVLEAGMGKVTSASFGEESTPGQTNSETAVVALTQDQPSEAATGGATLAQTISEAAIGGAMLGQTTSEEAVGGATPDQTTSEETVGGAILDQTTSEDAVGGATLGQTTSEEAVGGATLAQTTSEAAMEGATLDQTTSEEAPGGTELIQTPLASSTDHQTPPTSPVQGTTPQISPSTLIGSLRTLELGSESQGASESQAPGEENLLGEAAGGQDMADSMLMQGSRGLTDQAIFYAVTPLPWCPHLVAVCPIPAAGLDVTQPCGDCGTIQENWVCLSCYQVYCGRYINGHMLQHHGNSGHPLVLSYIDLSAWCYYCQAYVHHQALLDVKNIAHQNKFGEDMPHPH
Assay: Inhibition of human recombinant HDAC6 pre-incubated with compounds for 10 mins measured followed by 60 mins of substrate addition
resultType: IC50

- COc1ccc(-c2ncc(C(=O)NCc3ccc(C(=O)Nc4ccccc4N)cc3)[nH]2)cc1: > 10 µM
- CCCNNC(=O)c1ccc(CNC(=O)c2cnc(-c3cccc4ccccc34)[nH]2)cc1: 9.68 µM
- CCCNNC(=O)c1ccc(CNC(=O)c2cnc(-c3ccccc3)[nH]2)cc1: 8.91 µM

Q: Given the entry "CCCNNC(=O)c1ccc(CNC(=O)c2cnc(-c3ccnc4ccccc34)[nH]2)cc1" , what IC50 was observed with UniProt:Q9UBN7?
Result: > 10 µM

Q: Given the entry "Nc1ccccc1NC(=O)c1ccc(CNC(=O)c2cnc(-c3ccc4occc4c3)[nH]2)cc1" , what IC50 was observed with UniProt:Q9UBN7?
Result: > 10 µM

Q: Given the entry "Nc1ccccc1NC(=O)c1ccc(CNC(=O)c2cnc(-c3ccccc3)[nH]2)cc1" , what IC50 was observed with UniProt:Q9UBN7?
Result: > 10 µM

---

Molecular target: Histone deacetylase 1 (Homo sapiens, UniProt Q13547)
Sequence (Q13547 whole entry): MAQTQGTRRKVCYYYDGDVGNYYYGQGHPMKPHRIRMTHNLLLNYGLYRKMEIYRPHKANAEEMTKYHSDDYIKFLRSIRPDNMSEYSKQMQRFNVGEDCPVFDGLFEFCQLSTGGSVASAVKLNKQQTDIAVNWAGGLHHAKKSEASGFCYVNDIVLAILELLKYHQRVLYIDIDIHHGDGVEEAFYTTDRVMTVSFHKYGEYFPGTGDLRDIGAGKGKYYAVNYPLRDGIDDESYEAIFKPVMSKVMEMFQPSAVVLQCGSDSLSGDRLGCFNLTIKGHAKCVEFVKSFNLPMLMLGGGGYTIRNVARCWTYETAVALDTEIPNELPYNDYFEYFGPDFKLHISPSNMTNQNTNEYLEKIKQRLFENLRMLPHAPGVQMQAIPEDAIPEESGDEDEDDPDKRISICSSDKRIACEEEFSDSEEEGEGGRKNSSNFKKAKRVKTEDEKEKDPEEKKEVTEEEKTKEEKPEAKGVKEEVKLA
Test: Inhibition of human recombinant HDAC1 pre-incubated with compounds for 10 mins measured followed by 60 mins of substrate addition
pIC50: −log10 of the molar value.
resultType: pIC50

I: CCCNNC(=O)c1ccc(CNC(=O)c2cnc(-c3ccnc4ccccc34)[nH]2)cc1
II: CCCNNC(=O)c1ccc(CNC(=O)c2cnc(-c3ccc(F)cc3)[nH]2)cc1
Q: I'm curious, which of these has a smaller pIC50 number: I or II ? Use the label to indicate which entry you chose.
Result: I

1: COc1ccc(-c2ncc(C(=O)NCc3ccc(C(=O)Nc4ccccc4N)cc3)[nH]2)cc1
2: CCCNNC(=O)c1ccc(CNC(=O)c2cnc(-c3cccc4ccccc34)[nH]2)cc1
Q: I'm curious, which of these has a smaller pIC50 number: 1 or 2 ? Use the label to indicate which entry you chose.
Result: 1
(1: 5.35, 2: 5.69)

I: Nc1ccccc1NC(=O)c1ccc(CNC(=O)c2cnc(-c3ccc4occc4c3)[nH]2)cc1
II: CCCNNC(=O)c1ccc(CNC(=O)c2cnc(-c3ccc4ccccc4c3)[nH]2)cc1
Q: I'm curious, which of these has a smaller pIC50 number: I or II ? Use the label to indicate which entry you chose.
Result: I
(I: 5.38, II: 5.76)
